- run.description: Drug level in mouse brain at 10 mg/kg, ip after 24 hrs
- Assay type: ADME, organism-based
- Design: dose 10 mg/kg, route intraperitoneal
- settings: read-out: Drug uptake
observed.property: concentration at 24 h (nM)
Use nM as the unit, but write only the number.

Task: Please look up its concentration at 24 h: COc1ccc(C2CN(C)Cc3cc(OCCCN4CCC(F)CC4)ccc32)cc1 (configuration not stated)
Result: 2500

----------
pKi: −log10 of the molar value.
Entries with reported pKi on Histamine H3 receptor (Homo sapiens, UniProt Q9Y5N1)
Sequence (Q9Y5N1 whole entry): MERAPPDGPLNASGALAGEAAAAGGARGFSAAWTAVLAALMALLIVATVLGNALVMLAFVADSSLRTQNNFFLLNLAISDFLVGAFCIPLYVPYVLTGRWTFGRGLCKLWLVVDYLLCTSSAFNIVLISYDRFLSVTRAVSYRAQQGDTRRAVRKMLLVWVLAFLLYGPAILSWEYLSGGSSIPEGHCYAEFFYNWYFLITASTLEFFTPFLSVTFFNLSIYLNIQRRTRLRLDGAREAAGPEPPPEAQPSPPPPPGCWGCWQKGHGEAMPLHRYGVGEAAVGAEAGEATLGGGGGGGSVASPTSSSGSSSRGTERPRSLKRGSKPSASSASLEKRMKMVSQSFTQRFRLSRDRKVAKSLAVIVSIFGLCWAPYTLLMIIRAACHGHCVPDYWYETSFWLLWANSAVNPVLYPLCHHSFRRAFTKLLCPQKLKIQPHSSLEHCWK
observed.property: pKi

Consider the worked cases shown below.
INSERT INTO measurements (molecule, target, reported_measurement) VALUES
  ('COc1ccc(C2CN(C)Cc3cc(OCCCNC4CC4)ccc32)cc1 (stereo unspecified)', 'Histamine H3 receptor (Homo sapiens, UniProt Q9Y5N1)', 7.42),
  ('COc1ccc(C2CN(C)Cc3cc(OCCCN4CCN(c5ccc(C#N)cc5)CC4)ccc32)cc1 (stereo unspecified)', 'Histamine H3 receptor (Homo sapiens, UniProt Q9Y5N1)', 6.84),
  ('COc1ccc(C2CN(C)Cc3cc(OCCCN4CCN(C(C)=O)CC4)ccc32)cc1 (stereo unspecified)', 'Histamine H3 receptor (Homo sapiens, UniProt Q9Y5N1)', 6.57);

I. COc1ccc(C2CN(C)Cc3cc(OCCCN4CCC(CO)CC4)ccc32)cc1 (stereo unspecified)
II. COc1ccc(C2CN(C)Cc3cc(OCCCN4CCN(C(=O)c5ccncc5)CC4)ccc32)cc1 (stereo unspecified)
Task: API: POST /compare with I and II ; response names the item with higher pKi. Please indicate the selected item by its label.
Result: I
(I: 8.02, II: 5.55)
